# test.protocol: Protective index, ratio of TD50 for neurotoxicity in ip dosed Swiss mouse to ED50 for anticonvulsant activity in ip dosed Swiss mouse 6 Hz psychomotor seizure model at 0.25 hrs
# Type: toxicity, organism-based
# recorded.conditions: in vivo, read-out: Ratio TD50/ED50
parameter: selectivity ratio at 0.25 h
A bare number is all that is needed in reply.

If you can, please state the reported selectivity ratio at 0.25 h value of CCC(C(=O)N1CCN(c2cccc(Cl)c2)CC1)N1C(=O)CC(C)C1=O (stereo unspecified) .
5.13

For CC1CC(=O)N(C(C)C(=O)N2CCN(c3cccc(C(F)(F)F)c3)CC2)C1=O (stereo unspecified) then?
11.6

Now consider CC(C(=O)N1CCN(c2cccc(Cl)c2)CC1)N1C(=O)CC(C)(C)C1=O (stereo unspecified) and answer again.
8.91

Quick one: CCC(C(=O)N1CCN(c2cccc(C(F)(F)F)c2)CC1)N1C(=O)CC(C)C1=O (stereo unspecified)
5.42

Would you mind doing CC(C(=O)N1CCN(c2cccc(C(F)(F)F)c2)CC1)N1C(=O)CC(C)(C)C1=O (stereo unspecified) as well?
14.7

Would you kindly repeat that for CC1CC(=O)N(C(C)C(=O)N2CCN(c3cccc(Cl)c3)CC2)C1=O (stereo unspecified) ?
19.2

---

# Tested on: Mus musculus
# test.protocol: Anticonvulsant activity in Swiss mouse assessed as protection against maximal electroshock-induced seizures at 300 mg/kg, ip pretreated for 0.5 hrs
# Type: functional, organism-based
Activity calls are given as the source filed them. No cut-off for these calls is given here.
Select the matching outcome among 1 for active, -1 for inactive

Please share the test call associated with CC(C(=O)N1CCN(c2ccccc2F)CC1)N1C(=O)CC(C)(C)C1=O (configuration not stated) .
-1

Moving on to CC1CC(=O)N(C(C)C(=O)N2CCN(c3cccc(C(F)(F)F)c3)CC2)C1=O (configuration not stated)
1

One more compound: CC(C(=O)N1CCN(c2cccc(Cl)c2)CC1)N1C(=O)CC(C)(C)C1=O (configuration not stated)
1

Another compound to check: CC(C(=O)N1CCN(c2ccccc2)CC1)N1C(=O)CC(C)(C)C1=O (configuration not stated)
1

Next compound up: Cc1cccc(N2CCN(C(=O)C(C)N3C(=O)CC(C)C3=O)CC2)c1 (configuration not stated)
1

Same read-out for CC(C(=O)N1CCN(c2cccc(Cl)c2Cl)CC1)N1C(=O)CC(C)(C)C1=O (configuration not stated) ?
-1

Also CC(C(=O)N1CCN(C)CC1)N1C(=O)CC(C)(C)C1=O (configuration not stated) ?
-1

Check CC1CC(=O)N(C(C)C(=O)N2CCN(c3cccc(Cl)c3)CC2)C1=O (configuration not stated) too.
1

Same again, this time with CC(C(=O)N1CCN(c2cccc(C(F)(F)F)c2)CC1)N1C(=O)CC(C)(C)C1=O (configuration not stated)
1

How about CC(C(=O)N1CCN(c2ccccc2C(F)(F)F)CC1)N1C(=O)CC(C)(C)C1=O (configuration not stated) ?
1

Query CC1CC(=O)N(C(C)C(=O)N2CCN(C)CC2)C1=O (configuration not stated) next
-1

Field entry: CC1CC(=O)N(C(C)C(=O)N2CCN(c3cccc(Cl)c3Cl)CC2)C1=O (configuration not stated)
-1

---

# test.protocol: Neurotoxicity in ip dosed Swiss mouse seizure model assessed as motor impairment pretreated for 0.5 hrs measured within 60 s by chimney test
# Format: toxicity, organism-based
# recorded.conditions: in vivo
parameter: TD50 at 0.5 h (mg/kg)
// return numeric value only (unit: mg/kg, not printed)

Could you tell me which TD50 at 0.5 h is on file for CC1CC(=O)N(C(C)C(=O)N2CCN(c3cccc(C(F)(F)F)c3)CC2)C1=O (centres undefined) ?
213

What about this compound? CCC(C(=O)N1CCN(c2cccc(C(F)(F)F)c2)CC1)N1C(=O)CC(C)C1=O (centres undefined)
170

What do you get for CC1CC(=O)N(C(C)C(=O)N2CCN(c3cccc(Cl)c3)CC2)C1=O (centres undefined) ?
270

Note, next up: CC1CC(=O)N(CC(=O)N2CCN(c3cccc(C(F)(F)F)c3)CC2)C1=O (centres undefined)
225

---

# test.protocol: Protective index, ratio of TD50 for neurotoxicity in ip dosed Swiss mouse to ED50 for anticonvulsant activity in ip dosed MES Swiss mouse model at 0.25 hrs
# Assay type: toxicity, organism-based
# recorded.conditions: in vivo, read-out: Ratio TD50/ED50
Quick rule: selectivity ratio at 0.25 h of at least 2 means yes, below that means no.

selectivity ratio at 0.25 h >= 2 for CC1CC(=O)N(C(C)C(=O)N2CCN(c3cccc(C(F)(F)F)c3)CC2)C1=O (configuration not stated) ?
yes

What would you report for CC(C(=O)N1CCN(c2cccc(Cl)c2)CC1)N1C(=O)CC(C)(C)C1=O (configuration not stated) ?
no

// same read-out, input: CCC(C(=O)N1CCN(c2cccc(C(F)(F)F)c2)CC1)N1C(=O)CC(C)C1=O (configuration not stated)
yes

Another molecule to check: CC1CC(=O)N(C(C)C(=O)N2CCN(c3cccc(Cl)c3)CC2)C1=O (configuration not stated)
yes

Now the molecule CC(C(=O)N1CCN(c2cccc(C(F)(F)F)c2)CC1)N1C(=O)CC(C)(C)C1=O (configuration not stated)
yes

Moving on to the next molecule: CCC(C(=O)N1CCN(c2cccc(Cl)c2)CC1)N1C(=O)CC(C)C1=O (configuration not stated)
no

Would you mind doing Cc1cccc(N2CCN(C(=O)C(C)N3C(=O)CC(C)C3=O)CC2)c1 (configuration not stated) as well?
no

---

# Test system: Mus musculus
# test.protocol: Anticonvulsant activity in Swiss mouse assessed as protection against maximal electroshock-induced seizures at 300 mg/kg, ip pretreated for 0.25 hrs
# Type: functional, organism-based
Activity calls are given as the source filed them. The rule behind the calls is not given here.
Give your call using only these classes: 1 for active, 0 for inactive

Given CC(C(=O)N1CCN(c2cccc(Cl)c2Cl)CC1)N1C(=O)CC(C)(C)C1=O (configuration not stated) , state the outcome it received in this test.
0

Further, for CC(C(=O)N1CCN(c2ccc(F)cc2)CC1)N1C(=O)CC(C)(C)C1=O (configuration not stated) ?
0

Okay, and CCC(C(=O)N1CCN(c2cccc(C(F)(F)F)c2)CC1)N1C(=O)CC(C)C1=O (configuration not stated) ?
1

One more compound: CC(C(=O)N1CCN(c2ccccc2F)CC1)N1C(=O)CC(C)(C)C1=O (configuration not stated)
0

And then CC(C(=O)N1CCN(c2ccccc2C(F)(F)F)CC1)N1C(=O)CC(C)(C)C1=O (configuration not stated) , what is it?
1

Also need CC1CC(=O)N(C(C)C(=O)N2CCN(c3cccc(Cl)c3)CC2)C1=O (configuration not stated) , thanks.
1

Repeat with CC(C(=O)N1CCN(c2cccc(C(F)(F)F)c2)CC1)N1C(=O)CC(C)(C)C1=O (configuration not stated)
1

Try this compound too: CC1CC(=O)N(C(C)C(=O)N2CCN(c3ccc(C(F)(F)F)cc3)CC2)C1=O (configuration not stated)
0

And what about the compound CC(C(=O)N1CCN(c2ccccc2Cl)CC1)N1C(=O)CC(C)(C)C1=O (configuration not stated) ?
0

Record: CC(C(=O)N1CCN(c2ccc(C(F)(F)F)cc2)CC1)N1C(=O)CC(C)(C)C1=O (configuration not stated)
0

Do the same for CC(C(=O)N1CCN(C)CC1)N1C(=O)CC(C)(C)C1=O (configuration not stated) please
0

Further, for Cc1cccc(N2CCN(C(=O)C(C)N3C(=O)CC(C)C3=O)CC2)c1 (configuration not stated) ?
1

---

# Tested on: Mus musculus
# test.protocol: Antinociceptive activity in ip dosed Swiss mouse assessed as reduction of formalin-induced licking at MES ED50 pretreated for 0.25 hrs measured during 15 to 20 mins
# Format: functional
# Design: scale not given: the % may be the effect or the level left
parameter: Activity (%)
Give your result in % as a bare value.

Requested read-out Activity, target or system Mus musculus, entry CCC(C(=O)N1CCN(c2cccc(Cl)c2)CC1)N1C(=O)CC(C)C1=O (stereo not given)
93

Try this compound next: CC(C(=O)N1CCN(c2cccc(C(F)(F)F)c2)CC1)N1C(=O)CC(C)(C)C1=O (stereo not given)
96

Please give the result for CC1CC(=O)N(C(C)C(=O)N2CCN(c3cccc(Cl)c3)CC2)C1=O (stereo not given) too.
74

Continue with CC(C(=O)N1CCN(c2cccc(Cl)c2)CC1)N1C(=O)CC(C)(C)C1=O (stereo not given)
91

Can you handle CCC(C(=O)N1CCN(c2cccc(C(F)(F)F)c2)CC1)N1C(=O)CC(C)C1=O (stereo not given) next?
94

---

# Tested on: Mus musculus
# test.protocol: Anticonvulsant activity in ip dosed Swiss mouse assessed as protection against maximal electroshock-induced seizures at 0.5 hrs
# Type: functional
// assign Yes if ED50 falls strictly below 70 mg/kg, else No (ties count as No)

Dear reviewer, please state whether CC1CC(=O)N(CC(=O)N2CCN(c3cccc(C(F)(F)F)c3)CC2)C1=O (stereo not given) has ED50 strictly beneath 70 mg/kg.
No

Quick one: CC1CC(=O)N(C(C)C(=O)N2CCN(c3cccc(C(F)(F)F)c3)CC2)C1=O (stereo not given)
No

CC1CC(=O)N(C(C)C(=O)N2CCN(c3cccc(Cl)c3)CC2)C1=O (stereo not given) ?
No

Same for CCC(C(=O)N1CCN(c2cccc(C(F)(F)F)c2)CC1)N1C(=O)CC(C)C1=O (stereo not given)
No

Also COC[C@@H](NC(C)=O)C(=O)NCc1ccccc1 [LACOSAMIDE] , if possible.
Yes
